The following compounds are shown together with reported GI50 values.
Test system: HCT-116
assay-method-text: NCI tumour cell line growth inhibition, 48 h
Activity calls are given as the source filed them. Rule as the data show it: active = GI50 up to about 1.1 µM and inactive = higher. Where a SMILES comes first, the peptide text is derived from it. [ ]: non-standard residue; d: D form. Ac5c = NC1(C(=O)O)CCCC1

compound	target-desc	GI50
CN1C(=O)c2ccccc2C(O)(c2ccccc2)C1(O)c1ccccc1 (stereo not given)	HCT-116	95.3 µM (inactive)
COCn1cnc2c(=O)n(-c3ccc(C)cc3)c(=S)n(-c3ccc(C)cc3)c21	HCT-116	> 100 µM (inactive)
COc1cc(O)cc(/C=C/c2ccc(O)cc2)c1	HCT-116	32 µM (inactive)
CC(=O)N(C(=O)CC(=O)N/N=C\c1ccc(Br)c(N(CCC#N)CCC#N)c1)c1ccc(Cl)cc1	HCT-116	62.4 µM (inactive)
COC1(CCO)CC=CCC1(CCO)OC (stereo not given)	HCT-116	> 100 µM (inactive)
CN(CCCNC(=O)c1nn(-c2ccccc2)c2c1Cc1ccccc1-2)CCCNC(=O)c1nn(-c2ccccc2)c2c1Cc1ccccc1-2	HCT-116	1.65 µM (inactive)
COC(=O)C1(NC(=O)C(C)NC(=O)C(CCCCN)NC(=O)C(CC(C)C)NC(C)=O)CCCC1 (stereo not given) (Ac-LKA[Ac5c]-OMe; configuration not given here)	HCT-116	> 100 µM (inactive)
CCN1CN(c2ccccc2)C2(CCN(CC(CC3OCCO3)c3ccc(F)cc3)CC2)C1=O (stereo not given)	HCT-116	3.36 µM (inactive)
CC(=O)C1=C(C)N(c2ccccc2)C2(O)C3=C(C(=O)c4ccccc4C3=O)C(O)=CC12Cl (stereo not given)	HCT-116	5.96 µM (inactive)
CCN(CC)c1ccc(/N=N/c2ccc(-c3nc4cccn(C)c-4n3)cc2)cc1	HCT-116	3.61 µM (inactive)

---

Tested on: HOP-62
assay-method-text: NCI tumour cell line growth inhibition, 48 h
Activity calls are given as the source filed them. Cut-off read from the data, not from the text of the source: active = GI50 up to about 1.1 µM and inactive = higher.
measured-property: GI50

compound	target-desc	value-observed
CCN1CN(c2ccccc2)C2(CCN(CC(CC3OCCO3)c3ccc(F)cc3)CC2)C1=O (stereo not drawn)	HOP-62	4.23 µM (inactive)
COC(=O)C1=NN2c3ccccc3CN([C@@H](C)c3ccccc3)C(=O)[C@@H]2[C@H]1c1ccccc1	HOP-62	> 100 µM (inactive)
CC1(C)N=C(N)N=C(N)N1c1ccc(OCC(=O)Nc2cccc(S(=O)(=O)F)c2)c(Cl)c1	HOP-62	31 µM (inactive)
CCOC1(OCC)C2C=CC1C(COS(=O)(=O)c1ccc(C)cc1)C2COS(=O)(=O)c1ccc(C)cc1 (stereo not drawn)	HOP-62	45.8 µM (inactive)
Cc1ccc2ccccc2c1CSc1nc(N)nc2c1ncn2CC(C)C	HOP-62	28.9 µM (inactive)
O=C(NN1CCCCC1)c1cc2cc(CCl)ccc2oc1=O	HOP-62	19.4 µM (inactive)
CC(=O)Nc1ccc(C(=O)N2N=C(C)/C(=C\c3c(O)ccc4ccccc34)C2=O)cc1	HOP-62	> 100 µM (inactive)
CC(C)(CCCCC(C)(C)NCC1COc2ccccc2O1)NCC1COc2ccccc2O1 (stereo not drawn)	HOP-62	> 10 µM (inactive)

---

System: UO-31
assay-method-text: NCI tumour cell line growth inhibition, 48 h
Activity calls are given as the source filed them. Rule as the data show it: active = GI50 up to about 1.1 µM and inactive = higher.
measured-property: GI50

compound	value-observed
CN1CCN(P2(=S)Oc3ccc4ccccc4c3-c3c(ccc4ccccc34)O2)CC1	18.4 µM (inactive)
O=C1/C(=C/c2ccco2)N=C(c2ccccc2)N1c1ccc(S(=O)(=O)Nc2nccs2)cc1	57.1 µM (inactive)
CC1=C(O)C(=O)C2=C(C1=O)[C@@H]([C@@H](C)C/C=C/C(C)(C)O)CC[C@@H]2C	62.2 µM (inactive)
COC(CCC[N+](C)(C)C)CC[N+](C)(C)C (stereo not given)	> 100 µM (inactive)
COc1ccc(-c2cc(=O)c3ccccc3[nH]2)c(OC)c1	> 100 µM (inactive)
